- Tested System: Dual specificity tyrosine-phosphorylation-regulated kinase 1B (Homo sapiens);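 also: values are mean percent inhibition of DYRK1B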
- Test Settings: at 0.1 µM

{"Compound": "CS(=O)(=O)Nc1ccc(-c2ccc3c(NC(=O)C4CC4)n[nH]c3c2)cc1", "Tested System": "Dual specificity tyrosine-phosphorylation-regulated kinase 1B (Homo sapiens)", "inhibition / %": -0.26}
{"Compound": "COc1ccc2ncn(-c3cc(O[C@H](C)c4ccccc4C(F)(F)F)c(C(N)=O)s3)c2c1", "Tested System": "Dual specificity tyrosine-phosphorylation-regulated kinase 1B (Homo sapiens)", "inhibition / %": 0.37}
{"Compound": "COc1cccc(Nc2nccc(-c3cnn4ncccc34)n2)c1", "Tested System": "Dual specificity tyrosine-phosphorylation-regulated kinase 1B (Homo sapiens)", "inhibition / %": 81.5}
{"Compound": "COc1ccc(-c2nn3ncccc3c2-c2ccnc(Nc3ccc(F)c(F)c3)n2)cc1", "Tested System": "Dual specificity tyrosine-phosphorylation-regulated kinase 1B (Homo sapiens)", "inhibition / %": -0.82}
{"Compound": "CN1CCC(n2cnc(-c3ccc(F)cc3)c2-c2ccnc(NCCO)n2)CC1", "Tested System": "Dual specificity tyrosine-phosphorylation-regulated kinase 1B (Homo sapiens)", "inhibition / %": -0.1}
{"Compound": "O=C(O[C@H]1CN[C@H](C#Cc2cc3ncnc(Nc4ccc5c(ccn5Cc5cc(F)ccc5F)c4)c3s2)C1)N1CCOCC1", "Tested System": "Dual specificity tyrosine-phosphorylation-regulated kinase 1B (Homo sapiens)", "inhibition / %": 0.4}
{"Compound": "CNC(=O)c1sc(-n2cnc3cc(OC)c(OC)cc32)cc1OCc1ccccc1C(F)(F)F", "Tested System": "Dual specificity tyrosine-phosphorylation-regulated kinase 1B (Homo sapiens)", "inhibition / %": -0.95}
{"Compound": "CS(=O)(=O)CCNCc1ccc(-c2ccc3ncnc(Nc4ccc(OCc5ccccc5)cc4)c3c2)o1", "Tested System": "Dual specificity tyrosine-phosphorylation-regulated kinase 1B (Homo sapiens)", "inhibition / %": -0.07}
{"Compound": "Cc1c2ccc(N(C)c3ccnc(Nc4cccc(S(N)(=O)=O)c4)n3)cc2nn1C", "Tested System": "Dual specificity tyrosine-phosphorylation-regulated kinase 1B (Homo sapiens)", "inhibition / %": -3.31}
{"Compound": "O=C(O[C@H]1CN[C@H](C#Cc2cc3ncnc(Nc4ccc(OCc5cccc(F)c5)c(Cl)c4)c3s2)C1)N1CCOCC1", "Tested System": "Dual specificity tyrosine-phosphorylation-regulated kinase 1B (Homo sapiens)", "inhibition / %": -1.11}
{"Compound": "COc1cc2c(cc1Nc1nc(Nc3cccc(F)c3C(N)=O)c3cc[nH]c3n1)N(C(=O)CN1CCN(C(C)C)CC1)CC2", "Tested System": "Dual specificity tyrosine-phosphorylation-regulated kinase 1B (Homo sapiens)", "inhibition / %": 3.8}
{"Compound": "CC1=C(C(=O)Nc2ccc3[nH]nc(C)c3c2)C(c2ccc(C(F)(F)F)cc2)CC(=O)N1 (stereo not drawn)", "Tested System": "Dual specificity tyrosine-phosphorylation-regulated kinase 1B (Homo sapiens)", "inhibition / %": 1.73}
{"Compound": "NS(=O)(=O)c1ccc(N/N=C2\\C(=O)Nc3cccc(CCc4ccncc4)c32)cc1", "Tested System": "Dual specificity tyrosine-phosphorylation-regulated kinase 1B (Homo sapiens)", "inhibition / %": 1.6}

Reference source for all entries: ChEMBL document CHEMBL1961873
